# SYSTEM: Glucose-dependent insulinotropic receptor (Homo sapiens)
# Sequence (Q8TDV5 whole entry): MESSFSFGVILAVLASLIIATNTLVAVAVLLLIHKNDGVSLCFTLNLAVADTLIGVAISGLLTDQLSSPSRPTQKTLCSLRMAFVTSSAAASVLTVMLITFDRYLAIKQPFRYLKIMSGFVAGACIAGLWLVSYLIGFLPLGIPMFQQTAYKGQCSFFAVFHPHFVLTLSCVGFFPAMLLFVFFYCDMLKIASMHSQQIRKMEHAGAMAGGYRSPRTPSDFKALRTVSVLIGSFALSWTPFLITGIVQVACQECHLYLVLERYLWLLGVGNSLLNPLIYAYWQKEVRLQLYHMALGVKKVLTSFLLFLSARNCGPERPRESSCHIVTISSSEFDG
# EXPERIMENT NOTES: Agonist activity at human GPR119 expressed in HEK293 cells co-expressing CRE beta-lactamase assessed as cAMP accumulation by HTRF assay
ASSAY ENDPOINT: EC50 (nM)
# value in nM; strip the unit string

Exercise: # EC50 lookup, item `CC(C)OC(=O)N1CCC(n2cc(CNc3ccc(S(C)(=O)=O)cc3F)cn2)CC1`
Solution: 181

Exercise: Data request, read-out EC50, for `CC(C)COC(=O)N1CCC(n2cc(CNc3ccc(S(C)(=O)=O)cc3F)cn2)CC1`
Solution: 240

Exercise: Which EC50 is listed for `CS(=O)(=O)c1ccc(NCc2cnn(C3CCN(C(=O)OC4CCC4)CC3)c2)c(F)c1` ?
Solution: 462

Exercise: Find the recorded EC50 belonging to CCc1cnc(N2CCC([N+]3([O-])Cc4cn(-c5ccc(S(C)(=O)=O)cc5F)nc4C3)CC2)nc1 (stereo not given) and report it.
Solution: 498

Exercise: What value of EC50 has been reported for the following molecule? `CCc1cnc(N2CCC(N3Cc4cn(-c5ccc(S(C)(=O)=O)cc5F)nc4C3)CC2)nc1`
Solution: 83
